Molecular target: CYP450 2D6 (Homo sapiens, UniProt P10635)
Construct: 10 μM compound was incubated with human liver microsomes and selective marker substrates; from tissue; host or cells: human liver microsomes
Sequence (P10635 whole entry): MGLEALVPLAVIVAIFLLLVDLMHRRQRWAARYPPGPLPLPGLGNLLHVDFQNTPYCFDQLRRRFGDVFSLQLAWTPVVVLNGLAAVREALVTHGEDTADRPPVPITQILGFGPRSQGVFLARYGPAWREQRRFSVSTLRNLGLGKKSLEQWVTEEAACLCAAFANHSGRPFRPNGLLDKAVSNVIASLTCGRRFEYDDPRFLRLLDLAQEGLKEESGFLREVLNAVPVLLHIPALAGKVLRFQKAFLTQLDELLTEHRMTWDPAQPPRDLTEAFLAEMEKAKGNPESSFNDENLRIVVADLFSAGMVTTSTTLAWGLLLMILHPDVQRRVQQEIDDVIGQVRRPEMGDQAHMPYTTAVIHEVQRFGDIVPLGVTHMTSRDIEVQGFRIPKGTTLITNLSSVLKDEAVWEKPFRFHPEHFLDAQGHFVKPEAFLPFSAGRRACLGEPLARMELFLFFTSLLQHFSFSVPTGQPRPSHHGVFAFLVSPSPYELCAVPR
Assay: CYP450 inhibition in human liver microsomes, 2D6
Assay type: in vitro ADME
Conditions: 10 µM
REPORTED_PROPERTY: CYP450% inhibition @ 10 µM 2D6

- COMPOUND: "Nc1ccc(S(=O)(=O)Nc2ccnn2-c2ccccc2)cc1 [Sulfaphenazole, reference compound]"
  RESULT: "* (Inhibition < 10%)"
- COMPOUND: "O=C(Nc1ccc(Cl)cc1)Nc1ccc(C(=O)NO)cc1 [Compound 8b]"
  RESULT: "* (Inhibition < 10%)"
- COMPOUND: "C=C[C@H]1C[N@@]2CC[C@H]1C[C@@H]2[C@@H](O)c1ccnc2ccc(OC)cc12 [Quinidine, reference compound]"
  RESULT: "89%"
- COMPOUND: "COc1ccc(NC(=O)Nc2ccc(C(=O)NO)cc2)cc1 [Compound 8c]"
  RESULT: "* (Inhibition < 10%)"

====

As shown below, each of these compounds has a reported pIC50 value.
Target: human HDAC1 (Homo sapiens)
Sequence (Q13547 whole entry): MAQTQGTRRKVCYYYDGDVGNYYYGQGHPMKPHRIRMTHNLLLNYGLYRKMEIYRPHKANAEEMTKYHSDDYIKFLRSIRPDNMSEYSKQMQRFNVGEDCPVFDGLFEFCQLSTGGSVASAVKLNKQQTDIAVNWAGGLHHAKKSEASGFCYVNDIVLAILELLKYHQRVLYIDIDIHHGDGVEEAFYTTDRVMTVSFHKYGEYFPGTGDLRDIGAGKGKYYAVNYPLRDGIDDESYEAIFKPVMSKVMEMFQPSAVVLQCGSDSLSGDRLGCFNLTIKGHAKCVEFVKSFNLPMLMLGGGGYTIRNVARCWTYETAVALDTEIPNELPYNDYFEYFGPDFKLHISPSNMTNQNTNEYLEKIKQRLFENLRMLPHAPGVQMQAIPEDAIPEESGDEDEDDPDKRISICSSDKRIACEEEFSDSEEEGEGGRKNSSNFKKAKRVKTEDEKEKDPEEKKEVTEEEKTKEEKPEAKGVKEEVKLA
To interpret pIC50, take it as minus log10 of a concentration measured in moles per litre.

These recorded examples may help you get a feel for the data.
- CHEMICAL_SMILES: "COc1ccc(NC(=O)Nc2ccc(C(=O)NO)cc2)cc1"
  TARGET_DESC: "human HDAC1 (Homo sapiens)"
  pIC50: 5.21
- CHEMICAL_SMILES: "COc1ccc(NC(=O)Nc2ccc(CCC(=O)NO)cc2)cc1"
  TARGET_DESC: "human HDAC1 (Homo sapiens)"
  pIC50: 5.45
- CHEMICAL_SMILES: "O=C(Nc1ccc(Cl)cc1)Nc1ccc(C(=O)NO)cc1"
  TARGET_DESC: "human HDAC1 (Homo sapiens)"
  pIC50: 5.28
- CHEMICAL_SMILES: "O=C(CCc1ccc(NC(=O)Nc2ccccc2)cc1)NO"
  TARGET_DESC: "human HDAC1 (Homo sapiens)"
  pIC50: 5.31
- CHEMICAL_SMILES: "O=C(/C=C/c1ccc(NC(=O)Nc2ccc([N+](=O)[O-])cc2)cc1)NO"
  TARGET_DESC: "human HDAC1 (Homo sapiens)"
  pIC50: 5.95

Problem: Which measured pIC50 belongs to COc1ccc(NC(=O)Nc2ccc(/C=C/C(=O)NO)cc2)cc1 , tested on human HDAC1 (Homo sapiens)?
Solution: 5.80

Problem: Which measured pIC50 belongs to O=C(CCc1ccc(NC(=O)Nc2ccc(Cl)cc2)cc1)NO , tested on human HDAC1 (Homo sapiens)?
Solution: 5.32

====

As shown below, each of these compounds has a reported inhibition at 1 µM value.
Target: PfHDAC1 (Plasmodium falciparum, UniProt Q7K6A1)
Construct: purchased BPS Bioscience (San Diego, CA)
Sequence (Q7K6A1 1-449): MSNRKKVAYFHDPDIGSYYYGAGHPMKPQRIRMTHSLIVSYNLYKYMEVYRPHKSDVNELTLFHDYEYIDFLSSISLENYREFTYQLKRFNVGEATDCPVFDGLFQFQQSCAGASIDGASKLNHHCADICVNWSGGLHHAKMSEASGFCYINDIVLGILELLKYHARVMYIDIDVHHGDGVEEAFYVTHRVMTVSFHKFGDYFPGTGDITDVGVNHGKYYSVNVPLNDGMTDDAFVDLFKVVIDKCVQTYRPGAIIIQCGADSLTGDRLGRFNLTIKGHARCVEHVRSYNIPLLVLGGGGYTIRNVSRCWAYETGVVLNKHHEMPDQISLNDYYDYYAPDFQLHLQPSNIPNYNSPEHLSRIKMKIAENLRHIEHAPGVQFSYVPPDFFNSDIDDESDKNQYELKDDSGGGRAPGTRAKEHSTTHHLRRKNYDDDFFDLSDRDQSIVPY
Experiment: In vitro PfHDAC1 enzymatic assay
Type: biochemical
Conditions: 1.0 µM, recombinant PfHDAC1
Dear colleague, please return just the value in %, with no unit written.

These recorded examples may help you get a feel for the data.
- COMPOUND: "O=C(CCCCCCC(=O)Nc1ccccc1)NO [Vorinostat (SAHA, 1), Vorinostat, reference compound]"
  UNIT_OF_MEASURE: "%"
  MEASURED_NUMBER: 83
- COMPOUND: "CCCCN(Cc1ccc(C(=O)NO)cc1)C(=O)Nc1ccccc1 [Nexturastat A (16), Nexturastat A, reference compound]"
  UNIT_OF_MEASURE: "%"
  MEASURED_NUMBER: 58

Problem: inhibition at 1 µM lookup needed for COc1ccc(NC(=O)Nc2ccc(/C=C/C(=O)NO)cc2)cc1 , thanks.
Solution: 69
